- Measured on: SIRP-α mouse BALBc (mouse (BALBc)) (UniProt P97797)
- Test details: SPR, antibody on GLC chip, SIRP as analyte
Reported metric: pKd
The value called pKd is obtained by taking minus log10 of the concentration in mol/L.

# Binder, pKd
records = [
    ("Anti-SIRP-α antibody 136, light chain Mut_S22T, heavy chain Mut (antibody, V domains shown) VH: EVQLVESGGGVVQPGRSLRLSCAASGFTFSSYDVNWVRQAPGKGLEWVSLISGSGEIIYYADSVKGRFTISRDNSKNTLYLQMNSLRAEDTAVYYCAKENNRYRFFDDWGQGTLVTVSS VL: EIVLTQSPGTLSLSPGERATLTCRASQSVYTYLAWYQQKPGQAPRLLIYGASSRATGIPDRFSGSGSGTEFTLTISSLQSEDFAVYYCQQYYDRPPLTFGGGTKVEIK", 8.80),
]

Now take the following binder into account.
Q: Would you kindly share the measured pKd for Anti-SIRP-α antibody 136, light chain Mut_I2T, heavy chain Mut (antibody, V domains shown) VH: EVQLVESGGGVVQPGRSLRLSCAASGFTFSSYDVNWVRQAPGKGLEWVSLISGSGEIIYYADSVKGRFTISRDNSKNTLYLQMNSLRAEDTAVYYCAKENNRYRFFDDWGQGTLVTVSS VL: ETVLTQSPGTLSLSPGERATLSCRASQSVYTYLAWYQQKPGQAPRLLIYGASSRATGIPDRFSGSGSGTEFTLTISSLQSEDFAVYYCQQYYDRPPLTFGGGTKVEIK ?
A: 9.38

The measured values listed here are drawn from patent US20220096649A1.
